Entries and their Initial (%) Total Related substances
experiment: Solid-state stress stability test (temperature 60 °C); conditions: Table 8, initial
Where a name gives a salt, the structure may show the parent alone.
measure: Initial (%) Total Related substances

[[record]]
compound = "Cc1nc2c(O[C@H]3CCOc4cc(F)cc(F)c43)cc(C(=O)N(C)C)cc2[nH]1 [Hydrobromide Salt]"
measure = "Initial (%) Total Related substances"
reading = 2.173

[[record]]
compound = "Cc1nc2c(O[C@H]3CCOc4cc(F)cc(F)c43)cc(C(=O)N(C)C)cc2[nH]1 [Pidolate Salt]"
measure = "Initial (%) Total Related substances"
reading = 0.145

[[record]]
compound = "Cc1nc2c(O[C@H]3CCOc4cc(F)cc(F)c43)cc(C(=O)N(C)C)cc2[nH]1 [Maleate Salt]"
measure = "Initial (%) Total Related substances"
reading = 0.357

[[record]]
compound = "Cc1nc2c(O[C@H]3CCOc4cc(F)cc(F)c43)cc(C(=O)N(C)C)cc2[nH]1 [Methanesulfonate Salt (Amorphous Form)]"
measure = "Initial (%) Total Related substances"
reading = 0.530

[[record]]
compound = "Cc1nc2c(O[C@H]3CCOc4cc(F)cc(F)c43)cc(C(=O)N(C)C)cc2[nH]1 [Methanesulfonate Salt (Crystalline Form)]"
measure = "Initial (%) Total Related substances"
reading = 0.265

[[record]]
compound = "Cc1nc2c(O[C@H]3CCOc4cc(F)cc(F)c43)cc(C(=O)N(C)C)cc2[nH]1 [Phosphate Salt]"
measure = "Initial (%) Total Related substances"
reading = 0.254

[[record]]
compound = "Cc1nc2c(O[C@H]3CCOc4cc(F)cc(F)c43)cc(C(=O)N(C)C)cc2[nH]1 [Hemisalicylate Salt]"
measure = "Initial (%) Total Related substances"
reading = 0.208

[[record]]
compound = "Cc1nc2c(O[C@H]3CCOc4cc(F)cc(F)c43)cc(C(=O)N(C)C)cc2[nH]1 [Malate Salt]"
measure = "Initial (%) Total Related substances"
reading = 0.146

[[record]]
compound = "Cc1nc2c(O[C@H]3CCOc4cc(F)cc(F)c43)cc(C(=O)N(C)C)cc2[nH]1 [Hydrochloride Salt (Amorphous Form)]"
measure = "Initial (%) Total Related substances"
reading = 0.207

[[record]]
compound = "Cc1nc2c(O[C@H]3CCOc4cc(F)cc(F)c43)cc(C(=O)N(C)C)cc2[nH]1 [Sulfate Salt]"
measure = "Initial (%) Total Related substances"
reading = 0.609


###

This section presents compounds with their documented After 1 Month (%) Total Related substances values.
assay: Solid-state accelerated stability test (40 ± 2 °C/RH 75 ± 5 %); conditions: 40 ± 2 °C / RH 75 ± 5 %, 1 month
Structures can show the parent of a compound that is named as a salt.
measure: After 1 Month (%) Total Related substances

[[record]]
compound = "Cc1nc2c(O[C@H]3CCOc4cc(F)cc(F)c43)cc(C(=O)N(C)C)cc2[nH]1 [Sulfate Salt]"
reading = "1.197%"

[[record]]
compound = "Cc1nc2c(O[C@H]3CCOc4cc(F)cc(F)c43)cc(C(=O)N(C)C)cc2[nH]1 [Phosphate Salt]"
reading = "0.327%"

[[record]]
compound = "Cc1nc2c(O[C@H]3CCOc4cc(F)cc(F)c43)cc(C(=O)N(C)C)cc2[nH]1 [Methanesulfonate Salt (Crystalline Form)]"
reading = "0.727%"


###

Let's look at some compounds and their measured After 1 Month (%) Degradant.
test: Solid-state accelerated stability test (40 ± 2 °C/RH 75 ± 5 %); settings: 40 ± 2 °C / RH 75 ± 5 %, 1 month
Counter-ions that a name gives are not always drawn.
measure: After 1 Month (%) Degradant

[[record]]
compound = "Cc1nc2c(O[C@H]3CCOc4cc(F)cc(F)c43)cc(C(=O)N(C)C)cc2[nH]1 [Hydrobromide Salt]"
measure = "After 1 Month (%) Degradant"
reading = 2.188

[[record]]
compound = "Cc1nc2c(O[C@H]3CCOc4cc(F)cc(F)c43)cc(C(=O)N(C)C)cc2[nH]1 [Hemisalicylate Salt]"
measure = "After 1 Month (%) Degradant"
reading = 0.004

[[record]]
compound = "Cc1nc2c(O[C@H]3CCOc4cc(F)cc(F)c43)cc(C(=O)N(C)C)cc2[nH]1 [Sulfate Salt]"
measure = "After 1 Month (%) Degradant"
reading = 0.712

[[record]]
compound = "Cc1nc2c(O[C@H]3CCOc4cc(F)cc(F)c43)cc(C(=O)N(C)C)cc2[nH]1 [Methanesulfonate Salt (Crystalline Form)]"
measure = "After 1 Month (%) Degradant"
reading = 0.518


###

A collection of compounds and their measured After Ultraviolet Light Exposure (200 W hr/m2)(%) Total Related substances
assay: Photostability test, ultraviolet light (200 W·hr/m2) exposure; details: Table 10, UV 200 W·hr/m2, PE bag
Structures can show the parent of a compound that is named as a salt.
measure: After Ultraviolet Light Exposure (200 W hr/m2)(%) Total Related substances

[[record]]
compound = "Cc1nc2c(O[C@H]3CCOc4cc(F)cc(F)c43)cc(C(=O)N(C)C)cc2[nH]1 [Methanesulfonate Salt (Amorphous Form)]"
reading = 0.599

[[record]]
compound = "Cc1nc2c(O[C@H]3CCOc4cc(F)cc(F)c43)cc(C(=O)N(C)C)cc2[nH]1 [Hemisalicylate Salt]"
reading = 1.360

[[record]]
compound = "Cc1nc2c(O[C@H]3CCOc4cc(F)cc(F)c43)cc(C(=O)N(C)C)cc2[nH]1 [Maleate Salt]"
reading = 0.354

[[record]]
compound = "Cc1nc2c(O[C@H]3CCOc4cc(F)cc(F)c43)cc(C(=O)N(C)C)cc2[nH]1 [Hydrochloride Salt (Amorphous Form)]"
reading = 0.313

[[record]]
compound = "Cc1nc2c(O[C@H]3CCOc4cc(F)cc(F)c43)cc(C(=O)N(C)C)cc2[nH]1 [Sulfate Salt]"
reading = 1.748

[[record]]
compound = "Cc1nc2c(O[C@H]3CCOc4cc(F)cc(F)c43)cc(C(=O)N(C)C)cc2[nH]1 [Methanesulfonate Salt (Crystalline Form)]"
reading = 0.339

[[record]]
compound = "Cc1nc2c(O[C@H]3CCOc4cc(F)cc(F)c43)cc(C(=O)N(C)C)cc2[nH]1 [Pidolate Salt]"
reading = 0.266

[[record]]
compound = "Cc1nc2c(O[C@H]3CCOc4cc(F)cc(F)c43)cc(C(=O)N(C)C)cc2[nH]1 [Hydrobromide Salt]"
reading = 2.265

[[record]]
compound = "Cc1nc2c(O[C@H]3CCOc4cc(F)cc(F)c43)cc(C(=O)N(C)C)cc2[nH]1 [Malate Salt]"
reading = 0.172

[[record]]
compound = "Cc1nc2c(O[C@H]3CCOc4cc(F)cc(F)c43)cc(C(=O)N(C)C)cc2[nH]1 [Phosphate Salt]"
reading = 0.277


###

assay: Liquid stability comparative test (20 mg/mL in purified water, 40 °C, 24 hours, HPLC); format: physicochemical; settings: 20 mg/mL in purified water, 40 °C, 24 hours
Where a name gives a salt, the structure may show the parent alone.
measure: After 24 hours Purity (%)

[[record]]
compound = "Cc1nc2c(O[C@H]3CCOc4cc(F)cc(F)c43)cc(C(=O)N(C)C)cc2[nH]1 [Pidolate Salt]"
reading = "Solid precipitated"

[[record]]
compound = "Cc1nc2c(O[C@H]3CCOc4cc(F)cc(F)c43)cc(C(=O)N(C)C)cc2[nH]1 [Malate Salt]"
reading = "Solid precipitated"

[[record]]
compound = "Cc1nc2c(O[C@H]3CCOc4cc(F)cc(F)c43)cc(C(=O)N(C)C)cc2[nH]1 [Phosphate Salt]"
reading = "Solid precipitated"

